- Assay system: B1R receptor of the rat (rB1R) (Rattus norvegicus, UniProt P97583)
- Construct: expressed in transfected cells; host or cells: CHO K1 cells
- Sequence (P97583 whole entry): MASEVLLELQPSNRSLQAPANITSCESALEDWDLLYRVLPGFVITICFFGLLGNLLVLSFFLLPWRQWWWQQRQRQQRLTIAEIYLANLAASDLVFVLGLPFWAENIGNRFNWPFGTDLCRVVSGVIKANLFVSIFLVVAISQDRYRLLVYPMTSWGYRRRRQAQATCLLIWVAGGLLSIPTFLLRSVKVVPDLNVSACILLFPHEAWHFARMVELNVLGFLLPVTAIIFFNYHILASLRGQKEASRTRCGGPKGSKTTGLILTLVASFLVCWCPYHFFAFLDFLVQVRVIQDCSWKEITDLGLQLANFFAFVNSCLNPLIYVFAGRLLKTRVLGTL
- Assay text: Functional investigation on the bradykinin 1 receptor (B1R), FLIPR Ca2+ assay, rB1R cells
- Format: cell-based
- Details: test substance 10 μM; CHO K1 cells transfected with rat B1R gene; Fluo-4 Ca2+ signal; agonist Des-Arg9-bradykinin at EC80; % of maximum achievable inhibition; read-out: B1R antagonism, rat [10 μM] % inhibition
Structures can show the parent of a compound that is named as a salt.
Readout kind: inhibition at 10 µM (%)
Number in %, nothing else.

CN1CCC(N2CCN(S(=O)(=O)CCCCC3CCCN3S(=O)(=O)c3c(Cl)cc(C(F)(F)F)cc3Cl)CC2)CC1 (stereo not shown)	30
COc1cc(C)c(S(=O)(=O)N2CCC(CCS(=O)(=O)N3CCN(c4ccncc4)CC3)C2)c(C)c1C (stereo not shown)	95
O=S(=O)(CCC[C@@H]1CCCN1S(=O)(=O)c1ccc(Cl)c2ccccc12)N1CCC2(CCN(c3ccncc3)CC2)CC1	96
COc1cc(C)c(S(=O)(=O)N2CCC[C@H]2CCCS(=O)(=O)N2CCC3(CCN(c4ccncc4)CC3)C2)c(C)c1	101
COc1cc(C)c(S(=O)(=O)N2CCC[C@H]2CCCS(=O)(=O)N2CCC3(CCC(N4CC(F)(F)C4)CC3)CC2)c(C)c1	102
Cc1cc(S(=O)(=O)N2CCCCC2CCS(=O)(=O)N2CCN(C3CCN(C)CC3)CC2)c(C)cc1Cl (stereo not shown) [Example 38, dihydrochloride]	47

Here is another molecule to look at.
What does the record list as inhibition at 10 µM for COc1cc(C)c(S(=O)(=O)N2CCC[C@H]2CCCS(=O)(=O)N2CCC3(CCN(c4ccncc4)C3)C2)c(C)c1 (stereo partly shown) ?
103
